Documented Activity across a set of molecules
# Tested on: Candida parapsilosis
# Assay name: Induction of apoptosis in Candida parapsilosis ATCC 22019 assessed as late apoptotic cells at antifungal MIC90 after 24 hrs by Annexin V/propidium iodide staining based flow cytometry (reference value: 0.9%)
# Type: functional
Answer with a number only, understood to be in %.

Cn1cnnc1SCCc1nnc(SCC(=O)Nc2nc3ccc(F)cc3s2)o1 :: 41.7

What does the record list as Activity for Cn1cnnc1SCCc1nnc(SCC(=O)Nc2ccc([N+](=O)[O-])cc2)o1 ? 4.2

What does the record list as Activity for Clc1ccccc1C(c1ccccc1)(c1ccccc1)n1ccnc1 [CLOTRIMAZOLE] ? 6.4

What does the record list as Activity for CC(=O)N1CCN(c2ccc(OCC3COC(Cn4ccnc4)(c4ccc(Cl)cc4Cl)O3)cc2)CC1 (centres undefined) [KETOCONAZOLE] ? 15.2

----------
# Test system: Candida albicans
# Assay name: Induction of apoptosis in Candida albicans ATCC 90028 assessed as live cells at antifungal MIC90 after 24 hrs by Annexin V/propidium iodide staining based flow cytometry (reference value: 99.8%)
# Assay type: functional
Measure: Activity (%)
Answer with a number only, understood to be in %.

Clc1ccccc1C(c1ccccc1)(c1ccccc1)n1ccnc1 :: 56.7
CC(=O)N1CCN(c2ccc(OCC3COC(Cn4ccnc4)(c4ccc(Cl)cc4Cl)O3)cc2)CC1 (centres undefined) :: 35.3
Cn1cnnc1SCCc1nnc(SCC(=O)Nc2ccc([N+](=O)[O-])cc2)o1 :: 79.1

Now for a further compound.
Observed Activity on Candida albicans for Cn1cnnc1SCCc1nnc(SCC(=O)Nc2nc3ccc(F)cc3s2)o1 , please. 46.9

----------
Documented Activity across a set of compounds
# Test system: Pichia kudriavzevii
# Assay name: Induction of apoptosis in Candida krusei ATCC 6258 assessed as early apoptotic cells at antifungal MIC90 after 24 hrs by Annexin V/propidium iodide staining based flow cytometry (reference value: 0.5%)
# Format: functional
Answer with a number only, understood to be in %.

CC(=O)N1CCN(c2ccc(OCC3COC(Cn4ccnc4)(c4ccc(Cl)cc4Cl)O3)cc2)CC1 (centres undefined) [KETOCONAZOLE] :: 0.3
Cn1cnnc1SCCc1nnc(SCC(=O)Nc2ccc([N+](=O)[O-])cc2)o1 :: 0.3
Cn1cnnc1SCCc1nnc(SCC(=O)Nc2nc3ccc(F)cc3s2)o1 :: 0

Now for a further compound.
What does the record list as Activity for Clc1ccccc1C(c1ccccc1)(c1ccccc1)n1ccnc1 [CLOTRIMAZOLE] ? 0.6

----------
# Tested on: Pichia kudriavzevii
# Assay name: Antifungal activity against Candida krusei ATCC 6258 by broth microdilution assay
# Format: functional
Measure: MIC90 (mg/L)
Answer with a number only, understood to be in mg/L.

Observed MIC90 on Pichia kudriavzevii for Cn1cnnc1SCCc1nnc(SCC(=O)Nc2ccc(F)cc2)o1 , please. 500

Observed MIC90 on Pichia kudriavzevii for Cn1cnnc1SCCc1nnc(SCC(=O)Nc2nc3ccc([N+](=O)[O-])cc3s2)o1 , please. 500

Observed MIC90 on Pichia kudriavzevii for CC(=O)N1CCN(c2ccc(OCC3COC(Cn4ccnc4)(c4ccc(Cl)cc4Cl)O3)cc2)CC1 (configuration not stated) , please. 1.56

Observed MIC90 on Pichia kudriavzevii for Cn1cnnc1SCCc1nnc(SCC(=O)Nc2ccc(Cl)cc2)o1 , please. 500

Observed MIC90 on Pichia kudriavzevii for COc1ccc2nc(NC(=O)CSc3nnc(CCSc4nncn4C)o3)sc2c1 , please. 500

Observed MIC90 on Pichia kudriavzevii for Cn1cnnc1SCCc1nnc(SCC(=O)Nc2nc3ccccc3s2)o1 , please. 250

Observed MIC90 on Pichia kudriavzevii for Cn1cnnc1SCCc1nnc(SCC(=O)Nc2nc3ccc(F)cc3s2)o1 , please. 62.5
